target: T1, human CD47-Fc (human, UniProt Q08722 19-134); test: competitive ELISA, competitor SIRP-Fc; lower OD means more blocking
T1 construct: Leu19-Val134 is the natural numbering printed; also called human CD47-Fc receptor; human CD47-Fc (Biocad); not shown: Fc tag of the expression plasmid
T1 sequence (Q08722 19-134): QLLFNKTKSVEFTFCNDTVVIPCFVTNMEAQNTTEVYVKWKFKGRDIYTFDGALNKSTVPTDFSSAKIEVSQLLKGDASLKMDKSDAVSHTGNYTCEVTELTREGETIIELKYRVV
A collection of binders and their measured OD units, competitive screening to SIRP-Fc
Report the figure in OD units without appending any unit label.

Example entries and their recorded answers appear below.
BCD106-02_L.Alecto.VHHSel2_MP1_F10_76 (VHH, Llama anti-CD47 VHH tested as E. coli culture supernatant; not shown: myc and His6 tags at the C-terminus of the VHH (pET-22)) VHH: DVQLVESGGGLVQPGGSLRLSCAASRNIFSINAMNWYRQAPGKRREWVAQITSEGITNYVDSVKGRFTITRDNAKNTMYLQMNSLKPEDTAVYYCNAFVITASSEVYWGQGTTVTVSS = 0.114
BCD106-02_L.Alecto.VHHSel2_MP1_H10_78 (VHH, Llama anti-CD47 VHH tested as E. coli culture supernatant; not shown: myc and His6 tags at the C-terminus of the VHH (pET-22)) VHH: QVKLEESGGGLVQPGGSLRLSCAASRSISSINAMNWYRQAPGKRREWVAQITGEGITNYRDSVKGRFTITSDNAKNTMYLQMNSLKPEDTAVYYCNAFVIHTTSEVYWGQGTLVTVSS = 0.095
BCD106-02_L.Alecto.VHHSel2_MP1_G5_37 (VHH, Llama anti-CD47 VHH tested as E. coli culture supernatant; not shown: myc and His6 tags at the C-terminus of the VHH (pET-22)) VHH: AVQLVDSGGGLVQPGGSLRLSCAASRSIFSINAMNWYRQAPGNRREWVAQITDEGITNYVDSVKGRFTITRDNAKNTMYLQMNSLKPEDTAVYYCNAFVITTTSEIYWGQGTTVTVSS = 0.143

Task: Hello, please tell me recorded OD units, competitive screening to SIRP-Fc for this one: BCD106-02_L.Alecto.VHHSel2_MP1_C7_49 (VHH, Llama anti-CD47 VHH tested as E. coli culture supernatant; not shown: myc and His6 tags at the C-terminus of the VHH (pET-22)) VHH: AVQLVDSGGGLVQPGGSLRLSCAASRSIFSINAMNWYRQPPGNRREWVAQITDEGITNYVDSVKGRFTITRDNAKNTMYLQMNSLKPEDTAVYYCNAFVITTTSEIYWGQGTTVTVSS
Output: 0.14

Task: Hello, please tell me recorded OD units, competitive screening to SIRP-Fc for this one: BCD106-02_L.Alecto.VHHSel2_MP1_G7_53 (VHH, Llama anti-CD47 VHH tested as E. coli culture supernatant; not shown: myc and His6 tags at the C-terminus of the VHH (pET-22)) VHH: QVKLEESGGGLVQPGGSLTLSCAASGIISSINAMNWYRQAPGKRREWVAQITGEGITNCRDSWKGRFSITSDSANNTMYLQMNNLKPDDTDVYYCNAFVIHTTSEIYWGLGTTVTVSS
Output: 0.088

Task: Hello, please tell me recorded OD units, competitive screening to SIRP-Fc for this one: BCD106-02_L.Alecto.VHHSel2_MP1_B9_64 (VHH, Llama anti-CD47 VHH tested as E. coli culture supernatant; not shown: myc and His6 tags at the C-terminus of the VHH (pET-22)) VHH: DVQLVESGGGLVQPGGSLTLSCAASRNIFRINAMNWYRQAPGKRREWVAPITSEGITNYVDSVKGRFTITRDNAKNTMYLQMNSLKPEDTAVYYCNACLITASSEVYWGQGTLVTVSS
Output: 0.188
